ASSAY: Oral bioavailability in rat at 5 mg/kg
Format: ADME, organism-based
CONDITION_DESCRIPTION: in vivo
READOUT_LABEL: bioavailability (%)
Unit % implied. Number only.

Query: // lookup bioavailability for `Cc1n[nH]c2ccc(-c3cncc(OC[C@@H](N)Cc4ccccc4)c3)cc12`
Result: 30

====

ASSAY: Oral bioavailability in mouse at 10 mg/kg, po
Format: ADME, organism-based
CONDITION_DESCRIPTION: in vivo
Assign YES whenever bioavailability does not fall below 20%; assign NO whenever it does.

Query: Does `COc1ccc2ccccc2c1C[C@H](N)COc1cncc(-c2ccc3[nH]nc(C)c3c2)c1` have a reported bioavailability of at least 20%?
Result: NO

Query: Dear colleague, could you confirm whether `Cc1n[nH]c2ccc(-c3cncc(OC[C@@H](N)Cc4ccc5ccccc5c4)c3)cc12` has bioavailability at or above 20%?
Result: YES

Query: Can `Cc1n[nH]c2ccc(-c3cncc(NC[C@@H](N)Cc4ccccc4)c3)cc12` be said to have bioavailability at or above 20%?
Result: NO

Query: Tell me whether bioavailability is at least 20% here: `Cc1n[nH]c2ccc(-c3cncc(OC[C@@H](N)Cc4ccccc4)c3)cc12`
Result: YES

Query: Tell me whether bioavailability is at least 20% here: `Cc1n[nH]c2ccc(-c3cncc(OC[C@@H](N)Cc4csc5ccccc45)c3)cc12`
Result: NO

Query: Determine whether this molecule has bioavailability no lower than 20%: `N[C@H](COc1cncc(-c2ccc3cnccc3c2)c1)Cc1ccc2ccccc2c1`
Result: NO

Query: Quick check: does `Cc1[nH]c2ccccc2c1C[C@H](N)COc1cncc(-c2ccc3[nH]nc(C)c3c2)c1` have bioavailability greater than or equal to 20%?
Result: NO

Query: I'd appreciate it if you could say whether Cc1n[nH]c2ccc(-c3cncc(OC[C@@H](N)Cc4c[nH]c5ccccc45)c3)cc12 [A-443654] has bioavailability at least equal to 20%.
Result: NO

Query: Check the entry `N[C@H](COc1cncc(-c2ccc3cnccc3c2)c1)Cc1ccccc1` : does bioavailability equal or exceed 20%?
Result: NO

====

ASSAY: Oral bioavailability in dog at 2.5 mg/kg
Assay type: ADME, organism-based, Canis lupus familiaris
CONDITION_DESCRIPTION: in vivo
READOUT_LABEL: bioavailability (%)
Return type: number; implicit unit %.

Query: Name the reported bioavailability value associated with the molecule `Cc1n[nH]c2ccc(-c3cncc(OC[C@@H](N)Cc4ccccc4)c3)cc12`
Result: 63

# credit: ChEMBL document CHEMBL1137422
